Source listed as ChEMBL document CHEMBL1155677.

# target.of.assay: Protease (Human immunodeficiency virus 1, UniProt Q9YQ12)
# Sequence (Q9YQ12 whole entry): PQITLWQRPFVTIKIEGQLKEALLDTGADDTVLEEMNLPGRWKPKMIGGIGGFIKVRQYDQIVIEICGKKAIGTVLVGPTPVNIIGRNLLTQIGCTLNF
property.measured: pIC50
Please note pIC50 is a logarithmic value: minus log10 of concentration in mol/L. Answer with that number alone.

The cases that follow already have their pIC50 on record.
# sample.smiles, pIC50
records = [
    ("Oc1cc(O)c2c(c1)O[C@@]1(c3cc(O)c(O)c(O)c3)Oc3cc(O)c4c(c3[C@@H]2[C@H]1O)O[C@H](c1ccc(O)c(O)c1)[C@H](O)C4", 3.93),
    ("CC(C)=CCC[C@H](C(=O)O)[C@@H]1CC[C@]2(C)C3=CC[C@H]4C(C)(C)[C@@H](O)CC[C@]4(C)[C@H]3CC[C@@]12C", 3.66),
]

Record for CC(C)=CCC[C@H](C(=O)O)[C@@H]1CC[C@]2(C)C3=CC[C@@H]4[C@](C)(CC[C@H](O)[C@]4(C)CO)[C@H]3CC[C@@]12C under target or system Protease (Human immunodeficiency virus 1, UniProt Q9YQ12): pIC50 reported as 3.67
